# System: MCF7
# method.description: percentage of EdU-negative (G0-arrested) nuclei per well, 72 h; higher = more G0 arrest;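 also: secreted proteins added to cultured cells, EdU pulse at the end, nuclei found by Hoechst imaging, EdU status from nuclear versus surrounding ring intensity ratio, PBS as neutral control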
# condition.notes: protein concentration 0.0225 µM; reference: sequence is the full UniProt precursor, the tested protein was the secreted form or ectodomain
measured.property: percentage of EdU-negative (%)
Express the result in % but write the number alone.

Some sequences with recorded percentage of EdU-negative:
sequence.data	uom	numeric.result
MRNSYRFLASSLSVVVSLLLIPEDVCEKIIGGNEVTPHSRPYMVLLSLDRKTICAGALIAKDWVLTAAHCNLNKRSQVILGAHSITREEPTKQIMLVKKEFPYPCYDPATREGDLKLLQLMEKAKINKYVTILHLPKKGDDVKPGTMCQVAGWGRTHNSASWSDTLREVNITIIDRKVCNDRNHYNFNPVIGMNMVCAGSLRGGRDSCNGDSGSPLLCEGVFRGVTSFGLENKCGDPRGPGVYILLSKKHLNWIIMTIKGAV	%	27.7
MKLAALLGLCVALSCSSAAAFLVGSAKPVAQPVAALESAAEAGAGTLANPLGTLNPLKLLLSSLGIPVNHLIEGSQKCVAELGPQAVGAVKALKALLGALTVFG [Q96QR1]	%	21.8
MSPSPTALFCLGLCLGRVPAQSGPLPKPSLQALPSSLVPLEKPVTLRCQGPPGVDLYRLEKLSSSRYQDQAVLFIPAMKRSLAGRYRCSYQNGSLWSLPSDQLELVATGVFAKPSLSAQPGPAVSSGGDVTLQCQTRYGFDQFALYKEGDPAPYKNPERWYRASFPIITVTAAHSGTYRCYSFSSRDPYLWSAPSDPLELVVTGTSVTPSRLPTEPPSPVAEFSEATAELTVSFTNEVFTTETSRSITASPKESDSPAGPARQYYTKGNLVRICLGAVILIILAGFLAEDWHSRRKRLRHRGRAVQRPLPPLPPLPLTRKSNGGQDGGRQDVHSRGLCS [Q9HCN6]	%	24.8

So what's the measured percentage of EdU-negative for this one? MRTLTILTAVLLVALQAKAEPLQAEDDPLQAKAYEADAQEQRGANDQDFAVSFAEDASSSLRALGSTRAFTCHCRRSCYSTEYSYGTCTVMGINHRFCCL
26.4

====

# System: hTERT-HMEC
# method.description: percentage of EdU-negative (G0-arrested) nuclei per well, 72 h; higher = more G0 arrest
# condition.notes: protein concentration 0.3125 µM; reference: sequence is the full UniProt precursor, the tested protein was the secreted form or ectodomain
measured.property: percentage of EdU-negative
Enter the number, and then the unit.

Some sequences with recorded percentage of EdU-negative:
sequence.data	target.or.system	result
MALEKSLVRLLLLVLILLVLGWVQPSLGKESRAKKFQRQHMDSDSSPSSSSTYCNQMMRRRNMTQGRCKPVNTFVHEPLVDVQNVCFQEKVTCKNGQGNCYKSNSSMHITDCRLTNGSRYPNCAYRTSPKERHIIVACEGSPYVPVHFDASVEDST	hTERT-HMEC	4.52%
MLLLGAVLLLLALPGHDQETTTQGPGVLLPLPKGACTGWMAGIPGHPGHNGAPGRDGRDGTPGEKGEKGDPGLIGPKGDIGETGVPGAEGPRGFPGIQGRKGEPGEGAYVYRSAFSVGLETYVTIPNMPIRFTKIFYNQQNHYDGSTGKFHCNIPGLYYFAYHITVYMKDVKVSLFKKDKAMLFTYDQYQENNVDQASGSVLLHLEVGDQVWLQVYGEGERNGLYADNDNDSTFTGFLLYHDTN	hTERT-HMEC	5.02%
MVGPAPRRRLRPLAALALVLALAPGLPTARAGQTPRPAERGPPVRLFTEEELARYGGEEEDQPIYLAVKGVVFDVTSGKEFYGRGAPYNALTGKDSTRGVAKMSLDPADLTHDTTGLTAKELEALDEVFTKVYKAKYPIVGYTARRILNEDGSPNLDFKPEDQPHFDIKDEF [Q9UMX5]	hTERT-HMEC	6.64%

So what's the measured percentage of EdU-negative for this one? MTPHRLLPPLLLLLALLLAASPGGALARCPGCGQGVQAGCPGGCVEEEDGGSPAEGCAEAEGCLRREGQECGVYTPNCAPGLQCHPPKDDEAPLRALLLGRGRCLPARAPAVAEENPKESKPQAGTARPQDVNRRDQQRNPGTSTTPSQPNSAGVQDTEMGPCRRHLDSVLQQLQTEVYRGAQTLYVPNCDHRGFYRKRQCRSSQGQRRGPCWCVDRMGKSLPGSPDGNGSSSCPTGSSG
5.17%

So what's the measured percentage of EdU-negative for this one? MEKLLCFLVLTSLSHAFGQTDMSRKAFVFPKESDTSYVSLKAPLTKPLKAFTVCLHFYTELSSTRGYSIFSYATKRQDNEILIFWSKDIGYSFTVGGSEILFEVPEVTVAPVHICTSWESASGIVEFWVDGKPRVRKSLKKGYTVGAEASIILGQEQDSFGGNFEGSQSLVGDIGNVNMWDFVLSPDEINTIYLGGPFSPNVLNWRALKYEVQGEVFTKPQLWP
5.8%

So what's the measured percentage of EdU-negative for this one? MGFQKFSPFLALSILVLLQAGSLHAAPFRSALESSPADPATLSEDEARLLLAALVQDYVQMKASELEQEQEREGSSLDSPRSKRCGNLSTCMLGTYTQDFNKFHTFPQTAIGVGAPGKKRDMSSDLERDHRPHVSMPQNAN
5.1%

So what's the measured percentage of EdU-negative for this one? MAPGSRTSLLLAFALLCLPWLQEAGAVQTVPLSRLFDHAMLQAHRAHQLAIDTYQEFEETYIPKDQKYSFLHDSQTSFCFSDSIPTPSNMEETQQKSNLELLRISLLLIESWLEPVRFLRSMFANNLVYDTSDSDDYHLLKDLEEGIQTLMGRLEDGSRRTGQILKQTYSKFDTNSHNHDALLKNYGLLYCFRKDMDKVETFLRMVQCRSVEGSCGF [P0DML2]
6.34%

So what's the measured percentage of EdU-negative for this one? MVLLWLTLLLIALPCLLQTKEDPNPPITNLRMKAKAQQLTWDLNRNVTDIECVKDADYSMPAVNNSYCQFGAISLCEVTNYTVRVANPPFSTWILFPENSGKPWAGAENLTCWIHDVDFLSCSWAVGPGAPADVQYDLYLNVANRRQQYECLHYKTDAQGTRIGCRFDDISRLSSGSQSSHILVRGRSAAFGIPCTDKFVVFSQIEILTPPNMTAKCNKTHSFMHWKMRSHFNRKFRYELQIQKRMQPVITEQVRDRTSFQLLNPGTYTVQIRARERVYEFLSAWSTPQRFECDQEEGANTRAWRTSLLIALGTLLALVCVFVICRRYLVMQRLFPRIPHMKDPIGDSFQNDKLVVWEAGKAGLEECLVTEVQVVQKT
5.4%

So what's the measured percentage of EdU-negative for this one? MGLLLPLALCILVLCCGAMSPPQLALNPSALLSRGCNDSDVLAVAGFALRDINKDRKDGYVLRLNRVNDAQEYRRGGLGSLFYLTLDVLETDCHVLRKKAWQDCGMRIFFESVYGQCKAIFYMNNPSRVLYLAAYNCTLRPVSKKKIYMTCPDCPSSIPTDSSNHQVLEAATESLAKYNNENTSKQYSLFKVTRASSQWVVGPSYFVEYLIKESPCTKSQASSCSLQSSDSVPVGLCKGSLTRTHWEKFVSVTCDFFESQAPATGSENSAVNQKPTNLPKVEESQQKNTPPTDSPSKAGPRGSVQYLPDLDDKNSQEKGPQEAFPVHLDLTTNPQGETLDISFLFLEPMEEKLVVLPFPKEKARTAECPGPAQNASPLVLPP [Q9UGM5]
7.43%

So what's the measured percentage of EdU-negative for this one? MSLRLDTTPSCNSARPLHALQVLLLLSLLLTALASSTKGQTKRNLAKGKEESLDSDLYAELRCMCIKTTSGIHPKNIQSLEVIGKGTHCNQVEVIATLKDGRKICLDPDAPRIKKIVQKKLAGDESAD
4.65%

So what's the measured percentage of EdU-negative for this one? MLSCRLQCALAALSIVLALGCVTGAPSDPRLRQFLQKSLAAAAGKQELAKYFLAELLSEPNQTENDALEPEDLSQAAEQDEMRLELQRSANSNPAMAPRERKAGCKNFFWKTFTSC
4.88%

So what's the measured percentage of EdU-negative for this one? MKLAVTLTLVTLALCCSSASAEICPSFQRVIETLLMDTPSSYEAAMELFSPDQDMREAGAQLKKLVDTLPQKPRESIIKLMEKIAQSSLCN
4.91%

So what's the measured percentage of EdU-negative for this one? MEMFQGLLLLLLLSMGGTWASREMLRPRCRPINATLAVEKEGCPVCITVNTTICAGYCPTMTRVLQGVLPALPQVVCNYRDVRFESIRLPGCPRGVNPVVSYAVALSCQCALCRRSTTDCGGPKDHPLTCDDPRFQASSSSKAPPPSLPSPSRLPGPSDTPILPQ
5.26%
